The following variants are shown together with reported polymerase ribozyme fitness (log ratio) values.
B1: TPR 5TU (parent)
chain: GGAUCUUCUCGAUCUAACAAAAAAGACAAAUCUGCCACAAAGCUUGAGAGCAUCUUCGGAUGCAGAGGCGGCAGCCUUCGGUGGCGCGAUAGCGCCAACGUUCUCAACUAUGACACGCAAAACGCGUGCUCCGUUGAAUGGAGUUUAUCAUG

- Variants of: B1
- test method notes: polymerase ribozyme fitness, log enrichment relative to wild type (log ratio); higher = more active; in vitro selection for triplet polymerase activity
Fewer inactive variants are shown than the library holds.

The measured polymerase ribozyme fitness (log ratio) associated with A49C G81A G112A C114U G128A G133A reads ≤ -4.2
